Biological target: EGFR kinase (Homo sapiens, UniProt P00533)
Sequence (P00533 25-1210): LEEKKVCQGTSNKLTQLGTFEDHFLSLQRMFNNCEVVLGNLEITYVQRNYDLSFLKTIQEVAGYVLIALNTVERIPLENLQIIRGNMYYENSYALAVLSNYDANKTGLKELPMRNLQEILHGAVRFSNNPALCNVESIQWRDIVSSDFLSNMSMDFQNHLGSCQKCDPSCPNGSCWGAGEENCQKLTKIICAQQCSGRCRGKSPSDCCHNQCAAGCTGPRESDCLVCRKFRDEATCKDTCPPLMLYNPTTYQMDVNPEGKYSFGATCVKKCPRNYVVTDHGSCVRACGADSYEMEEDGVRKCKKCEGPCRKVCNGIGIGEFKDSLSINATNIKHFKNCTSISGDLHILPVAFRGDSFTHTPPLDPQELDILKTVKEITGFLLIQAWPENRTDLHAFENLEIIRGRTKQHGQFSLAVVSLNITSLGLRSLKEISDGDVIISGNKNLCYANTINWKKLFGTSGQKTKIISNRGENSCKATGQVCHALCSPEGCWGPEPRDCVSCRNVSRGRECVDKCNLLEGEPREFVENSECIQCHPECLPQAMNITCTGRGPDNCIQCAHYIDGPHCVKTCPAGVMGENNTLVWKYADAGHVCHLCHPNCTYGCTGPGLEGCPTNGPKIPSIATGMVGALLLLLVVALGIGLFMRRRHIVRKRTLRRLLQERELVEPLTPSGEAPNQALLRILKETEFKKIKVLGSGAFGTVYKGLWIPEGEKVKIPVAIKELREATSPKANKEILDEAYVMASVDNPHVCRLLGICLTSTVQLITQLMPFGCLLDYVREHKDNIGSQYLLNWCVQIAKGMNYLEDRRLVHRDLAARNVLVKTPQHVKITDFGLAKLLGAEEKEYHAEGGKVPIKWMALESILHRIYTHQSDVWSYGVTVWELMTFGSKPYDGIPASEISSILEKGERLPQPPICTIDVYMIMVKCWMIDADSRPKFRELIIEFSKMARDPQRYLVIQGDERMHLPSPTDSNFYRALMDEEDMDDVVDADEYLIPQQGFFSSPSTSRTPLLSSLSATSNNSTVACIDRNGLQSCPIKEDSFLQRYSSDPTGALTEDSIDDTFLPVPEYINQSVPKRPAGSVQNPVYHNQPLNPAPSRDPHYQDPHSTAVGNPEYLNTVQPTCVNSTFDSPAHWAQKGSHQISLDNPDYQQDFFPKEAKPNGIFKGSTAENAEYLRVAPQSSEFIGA
Assay: EGFR/ErbB2 enzymatic experiment (HTRF kinEASE-TK), EGFR
Format: biochemical
Conditions: EGFR kinase 0.06 units/μL, ATP 1.65 μM; read-out: Kinase IC50 (nM) in vitro EGFR
Measured IC50 by item
measure: IC50 (nM)

{"compound": "CCOc1cc2ncnc(Nc3ccc(Oc4ccn5ncnc5c4)c(C)c3)c2cc1NC(=O)/C=C/[C@H]1CCCN1", "obs value": 0.6}
{"compound": "Cc1cc(Nc2ncnc3ccc(NC(=O)/C(F)=C/[C@H]4CCCN4C)cc23)ccc1Oc1cc2nncn2cn1", "obs value": 4.7}
{"compound": "Cc1cc(Nc2ncnc3ccc(/C=C/C(=O)NC4CC4)cc23)ccc1Oc1cc2nncn2cn1", "obs value": 33.7}
{"compound": "CCOc1cc2ncc(C#N)c(Nc3ccc(Oc4cc5nncn5cn4)c(C)c3)c2cc1NC(=O)/C=C/[C@H]1CCCN1", "obs value": 1.06}
{"compound": "CCOc1cc2ncnc(Nc3ccc(Oc4ccn5ncnc5c4)c(C)c3)c2cc1NC(=O)/C(F)=C\\[C@H]1CCCN1C", "obs value": 32.6}
{"compound": "Cc1cc(Nc2ncnc3ccc(NC(=O)/C=C/C4COCCN4)cc23)ccc1Oc1cc2nncn2cn1 (stereo not drawn)", "obs value": 2.21}
{"compound": "Cc1cc(Nc2ncnc3ccc(NC(=O)/C=C/[C@H]4CCCN4C)cc23)ccc1Oc1ccc2nccn2n1", "obs value": 4.62}
{"compound": "C=CC(=O)NC1CCC=C(c2ccc3ncnc(Nc4ccc(Oc5cc6nncn6cn5)c(C)c4)c3c2)C1 (stereo not drawn)", "obs value": 14.4}
{"compound": "Cc1cc(Nc2ncnc3ccc(NC(=O)/C=C/[C@H]4CCCN4C)cc23)ccc1Oc1ccn2ccnc2c1", "obs value": 1.02}
{"compound": "CN1CCC[C@@H]1/C=C/C(=O)Nc1ccc2ncnc(Nc3ccc(Oc4ccn5ncnc5c4)c(Cl)c3)c2c1", "obs value": 2.52}
{"compound": "C=CC(=O)Nc1ccc2ncc(C#N)c(Nc3ccc(Oc4cc5nncn5cn4)c(C)c3)c2c1", "obs value": 13.8}
{"compound": "Cc1cc(Nc2ncnc3ccc(NC(=O)/C=C/[C@H]4CCCN4)cc23)ccc1Oc1ccn2ncnc2c1", "obs value": 3.97}
{"compound": "Cc1cc(Nc2ncnc3ccc(NC(=O)/C=C/[C@H]4CCCN4C)cc23)ccc1Oc1ccn2cnnc2c1", "obs value": 23.4}
{"compound": "Cc1cc(Nc2ncnc3ccc(NC(=O)C=CC4COCCN4)cc23)ccc1Oc1cc2nncn2cn1 (stereo in doubt)", "obs value": 5.29}
{"compound": "C=CC(=O)N1CCCC(Nc2ccc3ncnc(Nc4ccc(Oc5cc6nncn6cn5)c(C)c4)c3c2)C1 (stereo in doubt)", "obs value": 136}
{"compound": "Cc1cc(Nc2ncnc3ccc(NC(=O)/C=C/[C@H]4CCCN4C)cc23)ccc1Oc1ccn2ncnc2n1", "obs value": 0.42}
{"compound": "Cc1cc(Nc2c(C#N)cnc3ccc(NC(=O)/C=C/[C@H]4CCCN4C)cc23)ccc1Oc1cc2nncn2cn1", "obs value": 1.62}
{"compound": "CCOc1cc2ncc(C#N)c(Nc3ccc(Oc4cc5nncn5cn4)c(C)c3)c2cc1NC(=O)/C=C/[C@H]1CCCN1C", "obs value": 2.14}
{"compound": "C=CC(=O)N1CCC(c2ccc3ncnc(Nc4ccc(Oc5cc6nncn6cn5)c(C)c4)c3c2)CC1", "obs value": 168}
{"compound": "C=C(F)C(=O)N1CC=C(c2ccc3ncnc(Nc4ccc(Oc5cc6nncn6cn5)c(C)c4)c3c2)CC1", "obs value": 233}
{"compound": "Cc1cc(Nc2ncnc3ccc(NC(=O)/C=C/[C@H]4CCCN4C)cc23)ccc1Oc1cnn2cnnc2c1", "obs value": 20.5}
{"compound": "COCCOc1cc2ncnc(Nc3ccc(Oc4cc5nncn5cn4)c(C)c3)c2cc1NC(=O)/C=C/[C@H]1CCCN1C", "obs value": 0.53}
{"compound": "C=CC(=O)N[C@H]1CCCN(c2ccc3ncnc(Nc4ccc(Oc5cc6nncn6cn5)c(C)c4)c3c2)C1", "obs value": 62.1}
{"compound": "C=CC(=O)N1CCC[C@@H](Nc2ccc3ncnc(Nc4ccc(Oc5cc6nncn6cn5)c(C)c4)c3c2)C1", "obs value": 7.09}
